# MEASURED TARGET: Proteasome subunit beta (Trypanosoma cruzi) (UniProt O96673)
# Sequence (O96673 as listed by the source): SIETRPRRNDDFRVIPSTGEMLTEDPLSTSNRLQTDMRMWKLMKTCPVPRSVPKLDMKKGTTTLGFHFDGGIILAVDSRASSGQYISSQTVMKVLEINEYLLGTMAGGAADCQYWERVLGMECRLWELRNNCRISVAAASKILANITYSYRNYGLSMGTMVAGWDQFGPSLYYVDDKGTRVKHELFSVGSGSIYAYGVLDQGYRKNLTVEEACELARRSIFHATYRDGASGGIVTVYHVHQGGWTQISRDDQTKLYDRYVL
# TEST: Trypanosoma cruzi proteasome chymotrypsin-like activity (TcProtChymo) assay.
# Format: functional
# Parameters: scale not given: in the data most compounds retested in dose-response had high values
# CONDITION PARAMETERS: 9.37 µM
Percent Effect values for the compounds below.
Express the result in % but write the number alone.

Memo: COc1ccc2nnc(CCCC(=O)NCc3cccn3C)n2n1 , reported Percent Effect: 17.4

Memo: COC[C@H]1CCC[C@]12CN(C(=O)NCc1ccccc1)CCO2 , reported Percent Effect: 13.5

Memo: COc1c(C2CCCN2Cc2csc(C(C)C)n2)c(C)nn1C (stereo unspecified) , reported Percent Effect: 17.6

Memo: CN1CCCCC1c1ncc2c(n1)CCN(Cc1ccccc1Cl)C2 (stereo unspecified) , reported Percent Effect: 18.9

Memo: CC(C)C(=O)NC1CCN(Cc2cccc3c2OCCO3)CC1 , reported Percent Effect: -2.06

Memo: O=C(c1csc(-c2cccs2)n1)N1CCCC1Cn1cccn1 (stereo unspecified) , reported Percent Effect: -4.99

Memo: Cc1nc(C2CCCN(C(=O)c3ccc(Cn4cccn4)o3)C2)no1 (stereo unspecified) , reported Percent Effect: -4.9

Memo: CCN(CC)C(CNS(=O)(=O)c1ccc(C(=O)NC)cc1)c1ccco1 (stereo unspecified) , reported Percent Effect: 18.5

Memo: c1cnc2c(C3CCN(Cc4ccsc4)CC3)n[nH]c2n1 , reported Percent Effect: 17.9

Memo: N#Cc1ccnc(N2CCN(C(=O)NC3CCS(=O)(=O)C3)CC2)c1 (stereo unspecified) , reported Percent Effect: 9.87

Memo: CC(c1ccc(F)c(F)c1)N1CCN(Cc2nccn2C)CC1 (stereo unspecified) , reported Percent Effect: 8.62

Taken from ChEMBL document CHEMBL3988442.
